tested on: Rhizopus oryzae NBRC 31005; conditions: NBRC 31005
No end group written: not given here.
Reported Property: MIC Rhizopus oryzae

Sample records with MIC Rhizopus oryzae:
| Substance | Reported Property | Reported Result |
| --- | --- | --- |
| KNLRRIIRKIIHIIKKYG-NH2 [Ovispirin-1, reference compound] | MIC Rhizopus oryzae | > 128 µg/mL |
| RLKRMRKRLKRKLRLWHRKRYK-NH2 [SRP-8] | MIC Rhizopus oryzae | 8 µg/mL |
| GRLKRMGERLKRKIQKWIRW-NH2 [SRP-15] | MIC Rhizopus oryzae | 16 µg/mL |
| KLIFLHRLKRELRKRLKRKLR-NH2 [SRP-13] | MIC Rhizopus oryzae | 8 µg/mL |

Task item: Consider the substance MLKLIFLHRLKRMRKRLKRK-NH2 [SRP-10] and give its measured MIC Rhizopus oryzae.
Reply: 8 µg/mL

Task item: Consider the substance MLKLIFLHRLKRMRKRLKRKLR-NH2 [SRP-9] and give its measured MIC Rhizopus oryzae.
Reply: 8 µg/mL

* * *

test system: Staphylococcus aureus ATCC29213; experiment: microbe, parasite or virus in culture; type: cell-based; settings: ATCC29213
No end group written: not given here.
Reported Property: MIC Staphylococcus aureus (µg/mL)
Write the answer as a number in µg/mL, unit excluded.

| Substance | Measured Target | Reported Result |
| --- | --- | --- |
| RLKRMRKRLKRKLRLWHRKRYK-NH2 [SRP-8] | Staphylococcus aureus ATCC29213 | 16 |
| LIFLHRLKRMRKRLKRKLRL-NH2 [SRP-12] | Staphylococcus aureus ATCC29213 | 16 |
| MLKLIFLHRLKRMRKRLKRK-NH2 [SRP-10] | Staphylococcus aureus ATCC29213 | 16 |
| KNLRRIIRKIIHIIKKYG-NH2 [Ovispirin-1, reference compound] | Staphylococcus aureus ATCC29213 | 16 |
| IFLHRLKRMRKRLKRKLRLW-OH [SRP-7] | Staphylococcus aureus ATCC29213 | 32 |
| KLIFLRELRRLRKRLKRKLR-NH2 [SRP-16] | Staphylococcus aureus ATCC29213 | 16 |
| GRLKRMGKRLKRKIQKWARW-NH2 [SRP-14] | Staphylococcus aureus ATCC29213 | 16 |
| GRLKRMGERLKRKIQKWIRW-NH2 [SRP-15] | Staphylococcus aureus ATCC29213 | 16 |

Next substance, MIC Staphylococcus aureus to be filled in.
Task item: Consider the substance Ac-KLIFLRELRRLRKRLKRKLR-NH2 [SRP-20] and give its measured MIC Staphylococcus aureus.
Reply: 16

* * *

test system: Staphylococcus epidermidis JCM 2414; experiment: microbe, parasite or virus in culture; assay type: cell-based; conditions: JCM 2414
No end group written: not given here.
Reported Property: MIC Staphylococcus epidermidis (µg/mL)
Write the answer as a number in µg/mL, unit excluded.

Sample records with MIC Staphylococcus epidermidis:
| Substance | Reported Property | Reported Result |
| --- | --- | --- |
| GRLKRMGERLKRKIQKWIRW-NH2 [SRP-15] | MIC Staphylococcus epidermidis | 8 |
| Ac-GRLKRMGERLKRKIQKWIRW-NH2 [SRP-19] | MIC Staphylococcus epidermidis | 8 |
| MLKLIFLHRLKRMRKRLKRK-NH2 [SRP-10] | MIC Staphylococcus epidermidis | 8 |
| Ac-GRLKRMGKRLKRKIQKWARW-NH2 [SRP-18] | MIC Staphylococcus epidermidis | 8 |
| IFLHRLKRMRKRLKRKLRLW-OH [SRP-7] | MIC Staphylococcus epidermidis | 8 |

Next substance, MIC Staphylococcus epidermidis to be filled in.
Task item: Consider the substance LKLIFLHRLKRMRKRLKRKL-NH2 [SRP-11] and give its measured MIC Staphylococcus epidermidis.
Reply: 8
